Provenance of the data: the supplement of paper PMC10266784

B1: library; numbered along this chain (parent)
chain: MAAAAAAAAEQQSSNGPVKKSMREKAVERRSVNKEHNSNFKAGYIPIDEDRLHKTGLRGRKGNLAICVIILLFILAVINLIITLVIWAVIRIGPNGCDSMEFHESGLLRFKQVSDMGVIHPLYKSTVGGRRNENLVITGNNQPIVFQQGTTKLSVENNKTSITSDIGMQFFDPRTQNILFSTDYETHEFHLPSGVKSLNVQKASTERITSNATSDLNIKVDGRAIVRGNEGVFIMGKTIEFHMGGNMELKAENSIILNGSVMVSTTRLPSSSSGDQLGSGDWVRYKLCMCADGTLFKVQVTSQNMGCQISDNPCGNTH

Variants of: B1
assay: SGCB cell-surface expression functional score (HA stain, bin4 vs bin1, normalised to synonymous) (log10 ratio); higher = more cell-surface SGCB (functional)
test readout: SGCB cell-surface expression functional score (log10)
Give bare numbers.

Examples from the recorded data:
{"mutation annotation": "P313S", "result": -0.17}
{"mutation annotation": "S31T", "result": 0.06}

Turning to the following variant.
Annotate the variant A88S with its measured SGCB cell-surface expression functional score (log10).
0.49
